The entries below come with measured GI50 values attached.
- Test system: OVCAR-3 ovarian
- experimentalProtocol: NCI tumour cell line growth inhibition, 48 h
readoutLabel: GI50

| compound | tgt | recordedValue |
| --- | --- | --- |
| Nc1n[nH]c2ccc([C@@H]3Nc4c(F)cc5[nH]ncc5c4[C@H]4C5CCC(C5)[C@@H]34)cc12 (stereo partly drawn) | OVCAR-3 ovarian | 216 nM |
| Cc1ccc(-c2nc(C(Cl)Cl)nc3cc(C)nn23)cc1 | OVCAR-3 ovarian | 1470 nM |
| CCN(CC)Cc1cc(Nc2cc(C(F)(F)F)c(C#N)c3nc4ccccc4n23)ccc1O | OVCAR-3 ovarian | 1830 nM |
| Oc1ccc(-c2[nH]c3ccccc3c2-c2nc3ccccc3o2)cc1 | OVCAR-3 ovarian | 3050 nM |
| CCc1c(C#N)c(SC(C(N)=O)c2ccccc2)nc(N2CCC(N)CC2)c1C#N (stereo not drawn) | OVCAR-3 ovarian | 14500 nM |
| Cc1n(Cc2ccc3ccccc3n2)cc[n+]1Cc1ccc2ccccc2c1 | OVCAR-3 ovarian | 515 nM |
| Nc1ccn([C@@H]2S[C@H](CO)[C@@H](O)[C@@H]2F)c(=O)n1 | OVCAR-3 ovarian | > 51100 nM |
| O=C(Nc1nc2c(s1)CCc1c-2c(Br)n(Cc2ccccc2)c1Br)c1ccccc1 | OVCAR-3 ovarian | 4240 nM |

----------
- System: A549 NSCLC
- experimentalProtocol: NCI tumour cell line growth inhibition, 48 h; in the data active = GI50 below about 0.43 µM; inactive = the rest
Possible outcomes: active, inactive

| querySmiles | group |
| --- | --- |
| CCN(CC)CCCNc1c2ccc(Cl)cc2nc2ccc(OC)cc12 | active |
| CC1(C)N=C(N)N=C(N)N1c1ccc(OCCCCNC(=O)Nc2cccc(S(=O)(=O)F)c2)c(Cl)c1 | inactive |
| CCOC(=O)C1=C(C)N(Cc2ccc(Cl)cc2Cl)[C@]2(C#N)C(O)=C(Cl)C(Cl)=C(O)[C@]12C#N | inactive |

----------
- Test system: HT29 colon
- experimentalProtocol: NCI tumour cell line growth inhibition, 48 h
Where a SMILES comes first, the peptide text is derived from it. The star is where a group is joined. Boc = CC(C)(C)OC(=O)*; tBu = CC(C)(C)*
readoutLabel: TGI

| compound | recordedValue |
| --- | --- |
| O=C(O)c1ccccc1CC(Cc1ccccc1)C(=O)O (configuration not stated) | > 100 µM |
| Cc1ccccc1CNc1c2ccccc2nc2ccccc12 | 10 µM |
| Cc1ccc(C(=O)N2C/C(=C/c3ccccc3)C(=O)/C(=C/c3ccccc3)C2)cc1 | 7 µM |
| CC1=NN(C(=O)c2ccc(C)cc2)C(=O)C1N=Nc1ccccc1C(=O)O (configuration not stated) | > 100 µM |
| O=C1CC(=O)NC(=NN2C(=O)/C(=C/c3ccc(Cl)cc3)N=C2c2ccccc2)N1 | 31.5 µM |
| CC(N)=O.[Cl][Pt][Cl].[NH-]c1ccn(C2OC(CO)C(O)C2O)c(=O)n1 (configuration not stated) | > 100 µM |
| NC(N)=N/N=C\c1c(-c2ccccc2)nc2sccn12 | 28.6 µM |
| O=S(=O)(Cc1ccccc1)SCc1ccccc1 | 54.1 µM |
| COc1cc(OC)c(/C=C/C(=O)c2c(N)cc(OC)cc2OC)c(OC)c1 | 14.6 µM |
| CC(OC(C)(C)C)C(NC(=O)C(N)CCCCNC(=O)OC(C)(C)C)C(=O)NC(Cc1ccccc1)C(=O)O (configuration not stated) (H-Lys(Boc)-Thr(tBu)-Phe-OH; configuration not given here) | > 100 µM |
| Cn1cc(NC(=O)c2cc(NC(=O)CCCCCCCC(=O)Nc3cc(C(=O)Nc4cc(C(=O)NCCC(=N)N)n(C)c4)n(C)c3)cn2C)cc1C(=O)NCCC(=N)N | > 100 µM |
| CC1=NNC(=O)[C@H]2[C@H]1CCC1[C@@H]2CC[C@]2(C)[C@@H](O)CC[C@@H]12 (some centres not stated) | > 100 µM |
| Cn1c(=O)c(C(=O)NC23CC4CC(CC(C4)C2)C3)c(O)c2ccccc21 | 48.1 µM |
| Brc1ccc(-c2nc(-c3ccc(Br)cc3)n(-c3ccccc3)n2)cc1 | > 100 µM |
| O=CC(O)C(O)C(OC1OC(CO)C(O)C(O)C1O)C(O)CO (configuration not stated) (tested in a mixture with another compound) | > 100 µM |
| COc1ccc(/C=N/n2c(Cc3ccccc3)n[nH]c2=O)cc1 | > 100 µM |
| CSc1nc(C)cc(=O)n1C1OC(COC(C)=O)C(OC(C)=O)C(OC(C)=O)C1OC(C)=O (configuration not stated) | > 100 µM |
| CSC1(Cc2ccccn2)C(=O)Nc2cccc([N+](=O)[O-])c21 (configuration not stated) | > 100 µM |
| Cc1cc(NS(=O)(=O)c2ccc(NC(=O)c3ccc4nc5ccccc5c(Nc5ccc(S(=O)(=O)Nc6cc(C)on6)cc5)c4c3)cc2)no1 | > 50 µM |
| CC(=O)Oc1ccc(/C=C/C(=O)NCCOC(=O)/C=C/c2ccc(OC(C)=O)c(OC(C)=O)c2)cc1OC(C)=O | > 100 µM |
| Cc1cc(OC(=O)c2c(C)cc(OC(=O)c3c(C)cc(O)cc3O)cc2O)cc(O)c1C(=O)O | > 100 µM |
| Clc1cccc(C2SCc3nc4ccccc4n32)c1 (configuration not stated) | 67.2 µM |
| CCOC(=O)[C@@H]1C[C@@H]1c1ccc(O)c(O)c1 | > 100 µM |
| N#Cc1c(N)nc2n[nH]c(N)c2c1-c1ccccc1 | 57.7 µM |
| Nc1ncc(Sc2ccccc2C(=O)O)s1 | > 100 µM |
| O=C1c2ccccc2-c2c1c1ccc([N+](=O)[O-])cc1c(=O)n2CCCCl | > 100 µM |
| CCOP(=O)(/C=C\n1ccc(=O)[nH]c1=O)OCC | > 100 µM |
| C/C(=N\Nc1nc2ccccc2n1C)c1ccc2ccccc2n1 | 18.3 µM |
| Cc1cc(OC(=O)Nc2ccc(Cl)cc2)ccc1C(=S)Nc1ccccc1 | > 100 µM |
| COC(=O)C1(Cc2ccccc2)Cc2c(C)ccc(C)c2C1=O (configuration not stated) | 69.8 µM |
| O=C1NC2=NN=C(c3ccc(Br)cc3)CN2NC12c1ccccc1-c1ccccc12 | > 100 µM |
| C/C(CC(=O)Nc1cccc(Cl)c1C)=N\N=C(N)N | > 100 µM |
| CCN(CC)Cc1cc(Nc2cc(C(F)(F)F)c(C#N)c3nc4ccccc4n23)ccc1O | 12.2 µM |
| Cc1cc(C)c(S(=O)(=O)N(CCCN)OCCCN)c(C)c1 | > 100 µM |
| CCCCC1Cc2cc(OC)ccc2-c2n1c1cc(OC)ccc1[n+]2C (configuration not stated) (tested in a mixture with another compound) | > 29.2 µM |
| Cc1csc(CCC(N)C(=O)O)n1 (configuration not stated) | > 100 µM |
| O=C(O)C1=C(C(=O)O)Oc2ccccc2O1 | > 100 µM |

----------
- System: MCF7 breast
- experimentalProtocol: NCI tumour cell line growth inhibition, 48 h

| compound | TGI |
| --- | --- |
| NCC(Cc1ccccc1)P(=O)(O)O (centres undefined) | > 100 µM |
| Brc1ccc(-c2nc(-c3ccc(Br)cc3)n(-c3ccccc3)n2)cc1 | > 100 µM |
| CC(=O)Nc1sccc1S(=O)(=O)c1ccc(Cl)cc1 | > 100 µM |
| Nc1n[nH]c2ccc([C@@H]3Nc4c(F)cc5[nH]ncc5c4[C@H]4C5CCC(C5)[C@@H]34)cc12 (some centres undefined) | > 43.4 µM |
| O=C(O)Cc1ccc(Oc2nc3ccccc3nc2-c2ccccc2)cc1 | > 100 µM |
| O=c1c2ccccc2n2cnc3ccc(NCCNCCO)c1c32 | 9.62 µM |
| CC(N)=O.[Cl][Pt][Cl].[NH-]c1ccn(C2OC(CO)C(O)C2O)c(=O)n1 (centres undefined) | > 100 µM |
| O=C(/C=C\c1ccc(/C=C/C(=O)Nc2cccc(C3=NCCCN3)c2)cc1)Nc1cccc(C2=NCCCN2)c1 | > 100 µM |
| Cc1cc(-c2ccco2)cc(C)c1/C=C/c1cncc(-c2nn[nH]n2)c1 | > 25 µM |

----------
The entries below come with measured TGI values attached.
- System: MDA-MB-231 breast
- experimentalProtocol: NCI tumour cell line growth inhibition, 48 h
readoutLabel: TGI

| querySmiles | recordedValue |
| --- | --- |
| CO[C@]12C[C@@H](CNC(=O)c3cc(Br)c[nH]3)O[C@H]1NC(=O)N2 | > 100 µM |
| CN1CCOCCOCCOc2ccccc2NC(=O)c2nc(cnc2N)-c2ccc(cc2)S1(=O)=O | > 100 µM |
| Nc1ncc(Sc2ccccc2C(=O)O)s1 | > 100 µM |
| CSc1nc(C)c(CCOC(C)=O)c(N=P(c2ccccc2)(c2ccccc2)c2ccccc2)n1 | > 10 µM |
| O=S(=O)(c1ccc2ccccc2c1)N1CCN(S(=O)(=O)c2ccc3ccccc3c2)CC1 | > 100 µM |

Ref: PubChem BioAssay (NCI)
